# method notes: NFAT Signaling Pathway (AID 444);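 also: carbachol stimulus at about its EC50 of 1 µM final; % is scaled to controls: 0 for no effect and ±100 for the full control effect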
# test settings: Jurkat NFAT-bla M1, carbachol, beta-lactamase ratio, 5 h; at 38 µM (top of the series)
Results filed as inconclusive are left out.
Please provide measured activity change, negative = inhibition for the entries that follow.
// units = %; emit number, no label

QUERY: What activity change, negative = inhibition value was documented for this compound, "N[C@H](CCP(=O)(O)O)C(=O)O" ?
RESULT: 13.5

QUERY: Please give the result for "NC[C@H](CP(=O)(O)O)c1ccc(Cl)cc1" too.
RESULT: 3.15

QUERY: Please give the result for "O=C1CC[C@@]2(O)[C@H]3Cc4ccc(O)c5c4[C@@]2(CCN3CC2CC2)[C@@H]1O5" too.
RESULT: 8.31
